assay: PK study, i.v. dosing in mice; type: in vivo, male Swiss albino mice; details: mouse, plasma, iv; i.v. 1 mg/kg, male Swiss albino mice; read-out: AUC (area under the curve)
molecules and their reported AUC
Write the quantity with the unit trailing the number.

Entry under test: NCC(=O)Nc1ccc(S(=O)(=O)Nc2scnc2C(=O)O)cc1F [Comp. A, reference compound] . Its AUC was 0.009 µg·h/mL

Now let's try a different one.
Entry under test: N=C(N)NCC(=O)Nc1ccc(S(=O)(=O)Nc2scnc2C(=O)O)cc1F . Its AUC was 1.04 µg·h/mL

* * *

molecular target: IMP-1 (Serratia marcescens, UniProt P52699); test: In vitro enzyme inhibition assay, purified IMP-1 (imipenem hydrolysis, UV 299 nm); type: biochemical; settings: mean Ki from multiple experiments; imipenem 300 μM; Cheng-Prusoff from IC50; read-out: Ki IMP-1
Sequence (P52699 19-246, looked up, species assumed): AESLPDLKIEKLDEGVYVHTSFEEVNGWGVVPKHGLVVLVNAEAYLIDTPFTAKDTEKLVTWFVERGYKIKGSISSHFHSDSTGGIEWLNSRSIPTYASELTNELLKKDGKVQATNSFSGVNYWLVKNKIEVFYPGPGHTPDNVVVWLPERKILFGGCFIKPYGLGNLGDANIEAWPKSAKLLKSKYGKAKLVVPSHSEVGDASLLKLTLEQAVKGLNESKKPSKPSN
Observed Property: Ki

Examples with their reported Ki follow.
Entry under test: CNC(=N)CC(=O)Nc1ccc(S(=O)(=O)Nc2scnc2C(=O)O)cc1F . Its Ki was 1000 to 10000 nM

Entry under test: N=C(N)NNC(=O)Cc1ccc(S(=O)(=O)Nc2scnc2C(=O)O)cc1F . Its Ki was 1000 to 10000 nM

Entry under test: O=C(CNC1=NCCN1)Nc1cc(F)c(S(=O)(=O)Nc2scnc2C(=O)O)cc1F . Its Ki was 500 to 1000 nM

Entry under test: CNC(=N)NCC(=O)Nc1ccc(S(=O)(=O)Nc2scnc2C(=O)O)cc1F . Its Ki was 1000 to 10000 nM

Entry under test: N=C(N)NCC(=O)Nc1ncc(S(=O)(=O)Nc2scnc2C(=O)O)cc1F . Its Ki was 1000 to 10000 nM

More entries:
Entry under test: N=C(N)NCc1ccc(S(=O)(=O)Nc2scnc2C(=O)O)cc1F . Its Ki was 1000 to 10000 nM

Entry under test: N=C(N)NCC(=O)Nc1ccc(S(=O)(=O)Nc2scnc2C(=O)O)cc1OC(F)(F)F . Its Ki was < 500 nM

Entry under test: N=C(N)NCCSC(=O)Nc1ccc(S(=O)(=O)Nc2scnc2C(=O)O)cc1F . Its Ki was < 500 nM

Entry under test: CC(C(=N)N)C(=O)Nc1ccc(S(=O)(=O)Nc2scnc2C(=O)O)cc1F (stereo not drawn) . Its Ki was 1000 to 10000 nM

* * *

molecular target: NDM-1 (Klebsiella pneumoniae, UniProt C7C422); test: In vitro enzyme inhibition assay, purified NDM-1 (imipenem hydrolysis, UV 299 nm); assay type: biochemical; settings: mean Ki from multiple experiments; imipenem 300 μM; Cheng-Prusoff from IC50; read-out: Ki NDM-1
Sequence (C7C422 29-270, looked up): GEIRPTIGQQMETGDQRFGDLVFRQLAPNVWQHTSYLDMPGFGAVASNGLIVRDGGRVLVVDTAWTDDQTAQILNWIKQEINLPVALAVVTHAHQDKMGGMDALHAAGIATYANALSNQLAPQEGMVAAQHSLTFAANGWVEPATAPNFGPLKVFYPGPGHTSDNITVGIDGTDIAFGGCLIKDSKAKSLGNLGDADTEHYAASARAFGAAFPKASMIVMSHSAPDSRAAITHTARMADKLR
Observed Property: Ki

Examples with their reported Ki follow.
Entry under test: N=C(N)CNC(=O)Nc1ccc(S(=O)(=O)Nc2scnc2C(=O)O)cc1F . Its Ki was < 50 nM

Entry under test: N=C(N)NCc1ccc(S(=O)(=O)Nc2scnc2C(=O)O)cc1F . Its Ki was 50 to 200 nM

Entry under test: N=C(N)CNC(=O)Cc1ccc(S(=O)(=O)Nc2scnc2C(=O)O)cc1F . Its Ki was 50 to 200 nM

Entry under test: N=C(N)NCC(=O)Nc1ccc(S(=O)(=O)Nc2scnc2C(=O)O)cc1Cl . Its Ki was 50 to 200 nM

Entry under test: N=C(N)NCC(=O)Nc1ccc(S(=O)(=O)Nc2scnc2C(=O)O)nn1 . Its Ki was 200 to 2000 nM

More entries:
Entry under test: N=C1NCCN1CC(=O)Nc1ccc(S(=O)(=O)Nc2scnc2C(=O)O)cc1F . Its Ki was 200 to 2000 nM

Entry under test: N=C(N)CC(=O)Nc1ccc(S(=O)(=O)Nc2scnc2C(=O)O)cc1F . Its Ki was < 50 nM

Entry under test: O=C(CCC1=NCCN1)Nc1ccc(S(=O)(=O)Nc2scnc2C(=O)O)cc1F . Its Ki was < 50 nM

Entry under test: N#Cc1cc(S(=O)(=O)Nc2scnc2C(=O)O)ccc1NC(=O)CNC(=N)N . Its Ki was 50 to 200 nM
